I'd be grateful if you could share measured stoichiometry N for these entries.
# assay system: the molecule itself
# assay summary: SEC; purified recombinant AGT variants; single peak, elution volume of a ≈90 kDa dimer; data not shown
// return a plain number; no unit text

## Input # query: stoichiometry N of entry alanine:glyoxylate aminotransferase p.A295T on the minor allele, recombinant His-tagged (enzyme, human, UniProt P21549 1-392, looked up, alanine:glyoxylate aminotransferase (AGT), human, rare variant p.A295T in the minor allele; source: E. coli BL21 (pCOLDII), purified (IMAC, SEC)) MASHKLLVTPLKALLKPLSIPNQLLLGPGPSNLPPRIMAAGGLQMIGSMSKDMYQIMDEIKEGIQYVFQTRNPLTLVISGSGHCALEAALVNVLEPGDSFLVGANGIWGQRAVDIGERIGARVHPMTKDPGGHYTLQEVEEGLAQHKPVLLFLTHGESSTGVLQPLDGFGELCHRYKCLLLVDSVASLGGTPLYMDRQGIDILYSGSQKALNAPPGTSLISFSDKAKKKMYSRKTKPFSFYLDIKWLANFWGCDDQPRMYHHTIPVISLYSLRESLALIAEQGLENSWRQHREATAYLHGRLQALGLQLFVKDPALRLPTVTTVAVPAGYDWRDIVSYVMDHFDIEIMGGLGPSTGKVLRIGLLGCNATRENVDRVTEALRAALQHCPKKKL
## Output 2

## Input # query: stoichiometry N of entry alanine:glyoxylate aminotransferase p.I244T on the minor allele, recombinant His-tagged (enzyme, human, UniProt P21549 1-392, looked up, alanine:glyoxylate aminotransferase (AGT), human, PH1 mutation p.I244T in the minor allele (p.P11L, p.I244T and p.I340M in cis); source: E. coli BL21 (pCOLDII), purified (IMAC, SEC)) MASHKLLVTPLKALLKPLSIPNQLLLGPGPSNLPPRIMAAGGLQMIGSMSKDMYQIMDEIKEGIQYVFQTRNPLTLVISGSGHCALEAALVNVLEPGDSFLVGANGIWGQRAVDIGERIGARVHPMTKDPGGHYTLQEVEEGLAQHKPVLLFLTHGESSTGVLQPLDGFGELCHRYKCLLLVDSVASLGGTPLYMDRQGIDILYSGSQKALNAPPGTSLISFSDKAKKKMYSRKTKPFSFYLDTKWLANFWGCDDQPRMYHHTIPVISLYSLRESLALIAEQGLENSWRQHREAAAYLHGRLQALGLQLFVKDPALRLPTVTTVAVPAGYDWRDIVSYVMDHFDIEIMGGLGPSTGKVLRIGLLGCNATRENVDRVTEALRAALQHCPKKKL
## Output 2

Measured values drawn from paper PMC3796444 for this set.
